// data source = ChEMBL document CHEMBL1131818

Assay: Metabolism by recombinant human NAD(P)H:quinone oxidoreductase (NQO1) was evaluated
Assay type: ADME
Recorded metric: NADH oxidation (µM/min/mg)

As a guide, the following entries are already answered.
Input smiles	Unit text	Meas value
COC1=CC(=O)c2nc(-c3ccc(C)cc3)ccc2C1=O	µM/min/mg	19.2
COC1=CC(=O)c2nc(-c3ccccc3)ccc2C1=O	µM/min/mg	28.8
COC1=C(N)C(=O)c2nc(-c3nc(C(=O)O)c(C)c(-c4ccc(OC)c(OC)c4O)c3N)ccc2C1=O	µM/min/mg	47.4

A: COC1=CC(=O)c2nc(-c3cccs3)ccc2C1=O
B: COC1=CC(=O)c2nc(Cl)ccc2C1=O
Query :: Response body: label of entry with the larger NADH oxidation; valid values A , B . Give the label under which the chosen entry appears.
Result :: B

I: COC1=CC(=O)c2nc(-c3cccc4ccccc34)ccc2C1=O
II: COC1=CC(=O)c2nc(-c3ccccn3)ccc2C1=O
III: COC1=CC(=O)c2c(cc(C)n2C)C1=O
Query :: Endpoint returns the given molecules ordered by ascending NADH oxidation. Sort and list the labels as requested.
Result :: III, I, II
(III: 5.31 µM/min/mg, I: 25.1 µM/min/mg, II: 50.5 µM/min/mg)

A: O=C1C(N2CCCC2)=CC(=O)c2ncccc21
B: COC1=CC(=O)c2nc(-c3ccc(C)cn3)ccc2C1=O
C: COC1=CC(=O)c2nc(-c3ccc(-c4ccccc4)cc3)ccc2C1=O
D: COC1=CC(=O)c2nc(-c3ccc4ccccc4c3)ccc2C1=O
Query :: Arrange by NADH oxidation, high to low. List the labels in the requested order.
Result :: B, A, D, C
(B: 45.7 µM/min/mg, A: 26.2 µM/min/mg, D: 14 µM/min/mg, C: 4.75 µM/min/mg)

A: COC1=CC(=O)c2nc(-c3cc4ccccc4o3)ccc2C1=O
B: COC1=CC(=O)c2ncccc2C1=O
Query :: Which value of NADH oxidation is numerically greater: that of A or that of B ? Your answer should be the label of the entry you select.
Result :: B
